Below is a list of entries, each paired with its recorded AUC0-24 h value.
# assay_procedure: Pharmacokinetic measurement in mouse, single sc dose 30 nmol/kg, plasma ELISA
# reported_conditions: single sc dose 30 nmol/kg
Numeric answer only, unit µM·h assumed.

Use the examples below as a reference point.
MLC019: unconjugated GLP-1/GDF15 fusion protein, linker of at least 80 residues (protein) HGEGTFTSDVSSYLEEQAAKEFIAWLVRGGGGQEPGAQPGQEPGAQPGQEPGAQPGQEPGAQPGQEPGAQPGQEPGAQPGAQPGAQPGAQPGAQPGAQPGAQPGAQPGAQPARQGDHCPLGPGRCCRLHTVRASLEDLGWADWVLSPREVQVTMCIGACPSQFRAANLHAQIKTSLHRLRPDTVPAPCCVPASYNPMVLIQRTDTGVSLQTYDDLLARDCHCI
0.2639
MLC007: fusion polypeptide SEQ ID NO: 254 conjugated with Moiety A at 1K of Linker (conjugate, Moiety A conjugated at linker K1) HGEGTFTSDVSSYLEEQAAREFIAWLVRGGGKQEPGQEPGQEPGQEPGQEPGQEPGQEPGQEPGAQPGAQPARQGDHCPLGPGRCCRLHTVRASLEDLGWADWVLSPREVQVTMCIGACPSQFRAANLHAQIKTSLHRLRPDTVPAPCCVPASYNPMVLIQRTDTGVSLQTYDDLLARDCHCI
0.0638
MLC089: fusion polypeptide SEQ ID NO: 379 conjugated with Moiety B at 39C of Linker (conjugate, Moiety B conjugated at linker Cys39) HGEGTFTSDVSSYLEEQAAKEFIAWLVRGGGGAQPGAQPGAQPGAQPGAQPGAQPGAQPGAQPGQEPGQCPGQEPGAQPGQEPGAQPGQEPGAQPGQEPGAQPGQEPGAQPARQGDHCPLGPGRCCRLHTVRASLEDLGWADWVLSPREVQVTMCIGACPSQFRAANLHAQIKTSLHRLKPDTVPAPCCVPASYNPMVLIQKTDTGVSLQTYDDLLAKDCHCI
1.9822
MLC074: fusion polypeptide SEQ ID NO: 369 conjugated with Moiety B at 41C of Linker (conjugate, Moiety B conjugated at linker C41) HGEGTFTSDVSSYLEEQAAKEFIAWLVRGGGGQEPGAQPGQEPGAQPGQEPGAQPGQEPGAQPGQEPGAQPCQEPGAQPGAQPGAQPGAQPGAQPGAQPGAQPGAQPGAQPARQGDHCPLGPGRCCRLHTVRASLEDLGWADWVLSPREVQVTMCIGACPSQFRAANLHAQIKTSLHRLKPDTVPAPCCVPASYNPMVLIQKTDTGVSLQTYDDLLAKDCHCI
1.8247
MLC004: fusion polypeptide SEQ ID NO: 251 conjugated with Moiety A at 26K of GLP-1 (conjugate, Moiety A conjugated at K26) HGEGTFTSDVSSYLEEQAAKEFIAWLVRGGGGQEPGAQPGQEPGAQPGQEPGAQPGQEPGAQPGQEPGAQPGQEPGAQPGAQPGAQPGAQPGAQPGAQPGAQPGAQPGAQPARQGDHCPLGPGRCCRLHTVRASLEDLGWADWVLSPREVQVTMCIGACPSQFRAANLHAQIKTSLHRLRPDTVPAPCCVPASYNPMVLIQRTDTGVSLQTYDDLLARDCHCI
0.1745

Query string: Return the recorded AUC0-24 h value; entry: MLC005: fusion polypeptide SEQ ID NO: 252 conjugated with Moiety A at 12K of Linker (conjugate, Moiety A conjugated at linker K12) HGEGTFTSDVSSYLEEQAAREFIAWLVRGGGGQEPGQEPGQEKGQEPGQEPGQEPGQEPGQEPGAQPGAQPARQGDHCPLGPGRCCRLHTVRASLEDLGWADWVLSPREVQVTMCIGACPSQFRAANLHAQIKTSLHRLRPDTVPAPCCVPASYNPMVLIQRTDTGVSLQTYDDLLARDCHCI
Result string: 0.1172

Query string: Quickly give me recorded AUC0-24 h for MLC003: unconjugated GLP-1/GDF15 fusion protein (protein) HGEGTFTSDVSSYLEEQAAKEFIAWLVRGGGGQEPGQEPGQEPGQEPGQEPGQEPGQEPGQEPGAQPGAQPARQGDHCPLGPGRCCRLHTVRASLEDLGWADWVLSPREVQVTMCIGACPSQFRAANLHAQIKTSLHRLRPDTVPAPCCVPASYNPMVLIQRTDTGVSLQTYDDLLARDCHCI
Result string: 0.1074

Query string: Write down AUC0-24 h measured for item MLC006: fusion polypeptide SEQ ID NO: 253 conjugated with Moiety A at 36K of GLP-1 (conjugate, Moiety A conjugated at K36) HGEGTFTSDVSSYLEEQAAREFIAWLVRGKGGQEPGQEPGQEPGQEPGQEPGQEPGQEPGQEPGAQPGAQPARQGDHCPLGPGRCCRLHTVRASLEDLGWADWVLSPREVQVTMCIGACPSQFRAANLHAQIKTSLHRLRPDTVPAPCCVPASYNPMVLIQRTDTGVSLQTYDDLLARDCHCI
Result string: 0.0719
